System: Tetranychus urticae
protocolDetails: Acaricidal activity against Tetranychus urticae (two-spotted spider mite) assessed as fertility inhibition at 5 g/L measured after 6 days
Type: functional
reportedConditions: 144 h
Hi there, I'd appreciate the recorded inhibition at 5000 µg/mL for every entry that follows.
Numbers only, in %.

molecule	unitLabel	inhibition at 5000 µg/mL
CC(F)c1nn(C)c(C(=O)NCc2ccc(C(C)(C)C)cc2)c1Cl (stereo not drawn)	%	100
Cn1nc(CC(F)F)cc1C(=O)NCc1ccc(C(C)(C)C)cc1	%	100
CC(F)c1cc(C(=O)NCc2ccc(C(C)(C)C)cc2)n(C)n1 (stereo not drawn)	%	100

Each molecule below has a recorded value; state its inhibition at 5000 µg/mL.
1. Cn1nc(C(F)C(F)(F)F)c(Cl)c1C(=O)NCc1ccc(C(C)(C)C)cc1 (stereo not drawn)
2. CCc1nn(C)c(C(=O)NCc2ccc(C(C)(C)C)cc2)c1Cl [TEBUFENPYRAD]
3. Cn1nc(CC(F)F)c(Cl)c1C(=O)NCc1ccc(C(C)(C)C)cc1
4. Cn1nc(CC(F)(F)F)c(Cl)c1C(=O)NCc1ccc(C(C)(C)C)cc1
5. Cn1nc(CCF)c(Cl)c1C(=O)NCc1ccc(C(C)(C)C)cc1

Solution:
1. 65
2. 100
3. 100
4. 98
5. 100

Ref: ChEMBL document CHEMBL3046066
